Where do the numbers come from? From patent US20210054097A1.

Biological target: T1, FX activation peptide 12-mer AQATSSSGEAPD (human)
T1 peptide: AQATSSSGEAPD-biotin
Test: peptide ELISA
Ends that are not written are not given here.
readout: ELISA signal relative to background

Nb 721E08 (VHH, monovalent Nanobody; not shown: C-terminal FLAG3 and HIS6 tag) VHH: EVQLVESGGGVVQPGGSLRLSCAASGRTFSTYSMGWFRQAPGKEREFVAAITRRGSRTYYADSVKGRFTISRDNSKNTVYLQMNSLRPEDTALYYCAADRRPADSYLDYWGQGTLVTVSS | 1.92

Proceed to the following item.
Which value of ELISA signal relative to background has been reported for Nb 729A04 (VHH, monovalent Nanobody; not shown: C-terminal FLAG3 and HIS6 tag) VHH: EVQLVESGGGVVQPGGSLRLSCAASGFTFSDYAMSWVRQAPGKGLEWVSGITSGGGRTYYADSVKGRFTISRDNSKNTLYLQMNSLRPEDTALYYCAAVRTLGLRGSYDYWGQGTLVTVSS in the records? 1.08
